Parameter: pIC50. Scope: all listed entries.
# Target under test: CDK1/CyclinB (Homo sapiens (Human))
# Sequence (P06493 whole entry): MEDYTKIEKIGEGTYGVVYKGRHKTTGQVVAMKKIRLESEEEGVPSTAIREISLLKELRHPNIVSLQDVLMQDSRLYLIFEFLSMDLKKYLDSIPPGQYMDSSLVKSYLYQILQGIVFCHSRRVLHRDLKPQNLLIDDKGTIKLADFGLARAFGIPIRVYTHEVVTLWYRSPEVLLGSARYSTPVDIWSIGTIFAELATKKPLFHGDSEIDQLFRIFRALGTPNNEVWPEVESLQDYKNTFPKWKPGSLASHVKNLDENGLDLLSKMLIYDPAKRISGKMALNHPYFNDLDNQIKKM
# Sequence (P14635 whole entry partner): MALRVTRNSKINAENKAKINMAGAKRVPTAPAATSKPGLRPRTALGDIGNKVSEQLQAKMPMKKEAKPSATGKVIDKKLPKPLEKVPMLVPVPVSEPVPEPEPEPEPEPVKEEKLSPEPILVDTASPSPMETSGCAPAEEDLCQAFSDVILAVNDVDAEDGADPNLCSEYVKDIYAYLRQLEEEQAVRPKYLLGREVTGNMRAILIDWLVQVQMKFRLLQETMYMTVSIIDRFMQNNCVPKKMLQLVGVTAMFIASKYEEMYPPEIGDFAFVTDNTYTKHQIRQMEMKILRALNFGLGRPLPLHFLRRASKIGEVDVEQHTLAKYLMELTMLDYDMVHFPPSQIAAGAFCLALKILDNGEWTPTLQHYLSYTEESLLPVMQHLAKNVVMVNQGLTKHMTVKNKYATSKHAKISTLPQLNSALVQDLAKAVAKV
# Measurement protocol: CDK1/CyclinB kinase inhibitory activity (Caliper mobility shift)
# Protocol conditions: read-out: CDK1/Cyclin B1 IC50
pIC50: −log10 of the molar value.

Molecule: [2H]C([2H])([2H])NS(=O)(=O)c1ccc(Nc2ncc(CC)c(OC3CCOCC3O)n2)cc1 (single isomer, unassigned) [Example 151a]
pIC50: 6.00 to 7.00

Molecule: N#Cc1cnc(Nc2ccc(S(N)(=O)=O)cc2)nc1N1CCC[C@H](O)C1 [Example 69]
pIC50: 7.00 to 8.00

Molecule: C[C@H]1CCCCN1c1nc(Nc2ccc(S(N)(=O)=O)cc2)ncc1F [Example 88]
pIC50: 7.00 to 8.00

Molecule: CC1(COc2nc(NC3CCN(S(=O)(=O)CCO)CC3)ncc2C#N)CCCC1 [Example 57]
pIC50: > 8.00

Molecule: Cc1cnc(Nc2ccc(S(N)(=O)=O)cc2)nc1O[C@@H]1CCC[C@@H]1O (single isomer, unassigned) [Example 132a]
pIC50: 6.00 to 7.00

Query: Checklist item: pIC50 tested on CDK1/CyclinB (Homo sapiens (Human)), entry NS(=O)(=O)c1ccc(Nc2ncc(C(F)(F)F)c(O[C@@H]3CCC[C@@H]3O)n2)cc1 (single isomer, unassigned) [Example 99a] , value?
Reply: 7.00 to 8.00

Query: Checklist item: pIC50 tested on CDK1/CyclinB (Homo sapiens (Human)), entry NS(=O)(=O)c1ccc(Nc2ncc(C(F)(F)F)c(OC3CCCCCC3O)n2)cc1 (single isomer, unassigned) [Example 118b] , value?
Reply: 7.00 to 8.00

Query: Checklist item: pIC50 tested on CDK1/CyclinB (Homo sapiens (Human)), entry Cc1cnc(Nc2ccc(S(=O)(=O)NC(C)C)cc2)nc1OC1CCCC1O (single isomer, unassigned) [Example 147a] , value?
Reply: 7.00 to 8.00

Query: Checklist item: pIC50 tested on CDK1/CyclinB (Homo sapiens (Human)), entry CC1(COc2nc(Nc3ccc(S(N)(=O)=O)cc3)ncc2C#N)CCCC1 [Example 12] , value?
Reply: 7.00 to 8.00

Query: Checklist item: pIC50 tested on CDK1/CyclinB (Homo sapiens (Human)), entry N#Cc1cnc(Nc2ccc(S(N)(=O)=O)cc2)nc1O[C@@H]1CCCC[C@@H]1O (single isomer, unassigned) [Example 2a] , value?
Reply: 7.00 to 8.00

Query: Checklist item: pIC50 tested on CDK1/CyclinB (Homo sapiens (Human)), entry CS(=N)(=O)c1ccc(Nc2ncc(C#N)c(N3CCCCC3)n2)cc1 (stereo not shown) [Example 90] , value?
Reply: 6.00 to 7.00

Query: Checklist item: pIC50 tested on CDK1/CyclinB (Homo sapiens (Human)), entry N#Cc1cnc(Nc2ccc(S(N)(=O)=O)cc2)nc1N1CCCC1 [Example 67] , value?
Reply: 6.00 to 7.00

Query: Checklist item: pIC50 tested on CDK1/CyclinB (Homo sapiens (Human)), entry N#Cc1cnc(Nc2ccc(S(N)(=O)=O)cc2)nc1OC1CCCC1CO (single isomer, unassigned) [Example 18b] , value?
Reply: 7.00 to 8.00

Query: Checklist item: pIC50 tested on CDK1/CyclinB (Homo sapiens (Human)), entry N#Cc1cnc(Nc2ccc(S(N)(=O)=O)cc2)nc1N1CCCC(c2ccccc2)C1 (racemic) [Example 84] , value?
Reply: 7.00 to 8.00

Query: Checklist item: pIC50 tested on CDK1/CyclinB (Homo sapiens (Human)), entry C[C@@H]1C[C@H](O)CCN1c1nc(Nc2ccc(S(N)(=O)=O)cc2)ncc1C#N [Example 75] , value?
Reply: 7.00 to 8.00

Query: Checklist item: pIC50 tested on CDK1/CyclinB (Homo sapiens (Human)), entry [2H]C([2H])([2H])NS(=O)(=O)c1ccc(Nc2ncc(CC)c(OC3CCCC3O)n2)cc1 (single isomer, unassigned) [Example 149b] , value?
Reply: 6.00 to 7.00
